# Test system: Radical scavenging activity
# Assay Overview: Antioxidant activity assessed as DPPH free radical scavenging activity at 100 uM after 20 mins by spectrophotometric analysis
# Assay type: functional
The source made the active and inactive calls. No cut-off for these calls is given here.
Observation Type: Activity

For orientation, consider the following solved cases.
# Compound, Measurement Target, Activity
data = [
    ("CC(C)Cc1ccc(C(C)C(=O)NNC(=O)NC2CCCC2)cc1 (centres undefined)", "Radical scavenging activity", "4%"),
    ("CC(C)Cc1ccc(C(C)C(=O)NNC(=O)NOCc2ccccc2)cc1 (centres undefined)", "Radical scavenging activity", "inactive"),
    ("CC(C(=O)NNC(=O)NOCc1ccccc1)c1cccc(Oc2ccccc2)c1 (centres undefined)", "Radical scavenging activity", "inactive"),
    ("CC(C(=O)NN)c1cccc(Oc2ccccc2)c1 (centres undefined)", "Radical scavenging activity", "inactive"),
    ("CC(C(=O)NNC(=O)NNC(=O)NOCc1ccccc1)c1cccc(Cc2ccccc2)c1 (centres undefined)", "Radical scavenging activity", "10%"),
]

Item CC(C(=O)NNC(=O)NC1CCCCC1)c1cccc(Oc2ccccc2)c1 (centres undefined) has what recorded Activity?
19%

Returns the measured Activity for the input compound. Input: "O=C(NNC(=O)n1nnc2ccccc21)NOCc1ccccc1"
85%

Recorded Activity of CC(C(=O)NNC(=O)NC1CCCC1)c1cccc(Cc2ccccc2)c1 (centres undefined) , please.
4%

Item CC(C(=O)NNC(=O)NNC(=O)NOCc1ccccc1)c1cccc(Oc2ccccc2)c1 (centres undefined) has what recorded Activity?
8%

Fill blank: measured Activity of the compound CC(C(=O)NNC(=O)NCc1ccccc1)c1cccc(Cc2ccccc2)c1 (centres undefined) is ____.
3%

// Activity lookup, key: CC(C(=O)NNC(=O)NCC1CCCCC1)c1cccc(Cc2ccccc2)c1 (centres undefined)
5%

# get_value(readout='Activity', item= CC(C)Cc1ccc(C(C)C(=O)NNC(=O)NC2CCCCC2)cc1 (centres undefined) )
inactive

Return reported Activity; argument: CC(C(=O)NNC(=O)NC1CCCC1)c1cccc(Oc2ccccc2)c1 (centres undefined)
16%

Look up Activity: CC(C(=O)NNC(=O)NO)c1cccc(Cc2ccccc2)c1 (centres undefined)
36%

Where do these numbers come from? They come from ChEMBL document CHEMBL2010803.
